- Tested on: Calu-3
- TEST NAME: cell viability relative to DMSO; higher = less toxic
- RUN CONDITIONS: 72 h; 1 nM
ATTRIBUTE MEASURED: cell viability (%)
Answers are plain numbers, in %.

Okay, here is my list. What is cell viability for each of these?
1. O=C(NO)c1cnc(N2CCN(S(=O)(=O)c3ccc4ccccc4c3)CC2)nc1
2. COc1ccc(OC)c(CN(C(C)=O)c2cc(F)ccc2Oc2ccccc2)c1
3. CSc1ccc(C(=O)N[C@@H]2CCCC[C@@H]2NC(=O)CNC(=O)c2cc(C(F)(F)F)ccc2NC(=O)NC(C)C)cc1
4. O=[N+]([O-])c1cc([N+](=O)[O-])c(/C=C/c2ccc(Cl)c(Cl)c2)cc1/C=C/c1ccc(Cl)c(Cl)c1
5. Cc1oc(=O)oc1CN1CCN(c2cc3c(cc2F)c(=O)c(C(=O)O)c2n3C(C)S2)CC1 (stereo not drawn)
6. CC1=C(/C=C/C(C)=C/C=C/C(C)=C/CO)C(C)(C)CCC1
7. CCC(=O)N[C@@H]1Cc2ccccc2[C@H](c2ccccc2)C1
8. CN(C(=O)c1c(O)c2ccccc2n(C)c1=O)c1ccccc1

1: 107; 2: 103; 3: 112; 4: 100; 5: 104; 6: 90.6; 7: 105; 8: 85.8

====

I'd be grateful if you could share measured cell viability for these entries.
- System: U2OS
- TEST NAME: cell viability relative to DMSO; higher = less toxic
- RUN CONDITIONS: 72 h; 1 nM
Answers are plain numbers, in %.

Cn1c([N+](=O)[O-])cnc1COC(N)=O [ronidazole] ... 96.4

Okay, here is my list. What is cell viability for each of these?
1. CN1CCN(c2c(F)cc3c(=O)c(C(=O)O)cn(CCF)c3c2F)CC1 [fleroxacin]
2. c1cc2c(c(N3CCNCC3)c1)OCCO2 [eltoprazine]
3. CCC(NC(C)C)C(O)c1ccc(O)c(O)c1 (stereo unspecified) [isoetharine]

1. 96.5
2. 98.4
3. 90.2

Okay, here is my list. What is cell viability for each of these?
1. COC(=O)N1CC[C@@H]2[C@H]1CCC[C@@]2(O)C#Cc1cccc(C)c1 [mavoglurant]
2. CC1CCN(C(c2ccc(F)cc2)c2ccc(C(C)C(=O)O)cc2-c2ccc(C(F)(F)F)cc2)CC1 (stereo unspecified) [TC-E-5006]
3. COc1cc(OC)c2c(=O)[nH]c(-c3cc(C)c(OCCO)c(C)c3)nc2c1 [apabetalone]
4. N[C@@H]1CONC1=O [cycloserine-(D)]

1. 103
2. 102
3. 102
4. 96.7

Okay, here is my list. What is cell viability for each of these?
1. C[N+](C)(CCOc1ccccc1)Cc1ccccc1 [bephenium-hydroxynaphthoate]
2. CC[N+](CC)(CCNC(=O)C(=O)NCC[N+](CC)(CC)Cc1ccccc1Cl)Cc1ccccc1Cl [ambenonium]
3. C#C[C@]1(O)CC[C@H]2[C@@H]3CCC4=CC(=O)CC[C@@H]4[C@H]3C(=C)C[C@@]21CC [etonogestrel]
4. Cn1cc(C(F)(F)F)nc1-c1ccc(OCC(O)CNCCOc2ccc(O)c(C(N)=O)c2)cc1 (stereo unspecified)

93.7
97.7
93.8
98.7

====

I'd be grateful if you could share measured cell viability for these entries.
- System: Calu-3
- TEST NAME: cell viability relative to DMSO; higher = less toxic
- RUN CONDITIONS: 72 h; 1000 nM
Numbers only, in %.

CCC(=O)N[C@@H]1Cc2ccccc2[C@H](c2ccccc2)C1 [4-P-PDOT] ... 114

Okay, here is my list. What is cell viability for each of these?
1. O=C(OC(C(F)(F)F)C(F)(F)F)N1CCC(C(O)(c2ccc3c(c2)OCO3)c2ccc3c(c2)OCO3)CC1 [KML29]
2. Cc1cccc(-c2n[nH]cc2-c2ccc3ncccc3n2)n1 [repsox]
3. Oc1ccc2c(c1)CC[C@H](c1ccccc1)[C@@H]2c1ccc(OCCN2CCCC2)cc1 [lasofoxifene]
4. CCn1c(=O)n([C@H]2CCCN(c3nccc(-c4cc5ccccc5o4)n3)C2)c2ccccc21 [TC-F-2]
5. C[C@]12COC(=O)C[C@@H]1CC[C@@H]1[C@@H]2CC[C@@]2(C)[C@H]1CC[C@]2(C)O [Oxandrolone]
6. O=C(O)[C@@H]1C[C@@H](O)CN1 [L-hydroxyproline]
7. CCC(CC)O[C@@H]1C=C(C(=O)O)C[C@H](N)[C@H]1NC(C)=O [oseltamivir-carboxylate]

108
101
95.9
104
103
96.9
98.2

====

- System: Vero E6
- TEST NAME: cell viability relative to DMSO; higher = less toxic
- RUN CONDITIONS: 72 h; 1000 nM
ATTRIBUTE MEASURED: cell viability (%)
Give bare numbers, in %.

N=C(Nc1ccc(I)cc1)NC1C2CC3CC(C2)CC1C3 (centres undefined) ... 94.2
Nc1nc2c(ccc3ccccc32)s1 ... 100
CN(C(=O)c1c(O)c2ccccc2n(C)c1=O)c1ccccc1 ... 97.1
CCOCc1nc2c(N)nc3ccccc3c2n1CC(C)(C)O ... 99.9
CCn1c(=O)n([C@H]2CCCN(c3nccc(-c4cc5ccccc5o4)n3)C2)c2ccccc21 ... 96.6

Okay, here is my list. What is cell viability for each of these?
1. C#C[C@]1(O)CC[C@H]2[C@@H]3CCC4=CC(=O)CC[C@@H]4[C@H]3C(=C)C[C@@]21CC
2. CCC(=O)Nc1cccc(Oc2nc(Nc3ccc(N4CCN(C)CC4)cc3OC)ncc2Cl)c1
3. CN(C)CC(=O)Nc1ccc2[nH]c(=O)c3ccccc3c2c1
4. CCOC(=O)c1cc(C#N)c(N2CCC(C(=O)NS(=O)(=O)Cc3ccccc3)CC2)nc1C

1. 85.2
2. 96.2
3. 100
4. 104

====

I'd be grateful if you could share measured cell viability for these entries.
- Tested on: Calu-3
- TEST NAME: cell viability relative to DMSO; higher = less toxic
- RUN CONDITIONS: 72 h; 10 nM
One number for each entry, in %.

CN1CCN(c2c(F)cc3c(=O)c(C(=O)O)cn(CCF)c3c2F)CC1 ... 106
Oc1ccc(O)cc1 [hydroquinone] ... 90
COc1cc2ncnc(Nc3ccc(Oc4ccccc4)cc3)c2cc1OC ... 102
CSc1ccc(C(=O)N[C@@H]2CCCC[C@@H]2NC(=O)CNC(=O)c2cc(C(F)(F)F)ccc2NC(=O)NC(C)C)cc1 ... 94
Cc1noc2c1-c1ccccc1C(c1ccc(Cl)cc1)=N[C@H]2CC(N)=O ... 99.7
O=c1cc(-c2cccc3c2Sc2ccccc2S3)oc(N2CCOCC2)c1 ... 98.9

Okay, here is my list. What is cell viability for each of these?
1. N#C/C(=C\c1cn(-c2ccccc2)c2ccccc12)C(=O)O
2. CCCCCCCC/C=C\CCCCCCCC(N)=O [oleamide]
3. CC(C)NCC(O)c1ccc2ccccc2c1 (stereo not given)

1: 90.1; 2: 98.7; 3: 99

Okay, here is my list. What is cell viability for each of these?
1. CC1CCN(C(c2ccc(F)cc2)c2ccc(C(C)C(=O)O)cc2-c2ccc(C(F)(F)F)cc2)CC1 (stereo not given)
2. O=C(O)CCC(=O)O
3. NCCC(Oc1ccc(C(F)(F)F)cc1)c1ccccc1 (stereo not given)
4. NC1(C(=O)O)CC1
5. O=C(Nc1c(-c2cccs2)nc2ccccn12)c1ccc(Cl)cc1
6. Oc1ccc2c(c1)CC[C@H](c1ccccc1)[C@@H]2c1ccc(OCCN2CCCC2)cc1
7. CCC(C)(C)C(=O)C(=O)N1CCC[C@H]1C(=O)OCCCc1cccnc1
8. Cc1cccc(N(C)C(=S)Oc2ccc3ccccc3c2)c1 [tolnaftate]

[92.3, 105, 108, 93.4, 104, 96.6, 88.9, 90]

Okay, here is my list. What is cell viability for each of these?
1. CC1=C(/C=C/C(C)=C/C=C/C(C)=C/CO)C(C)(C)CCC1
2. COc1ccc(Cl)c(Nc2ncnc3cc(OCC4CCN(C)CC4)c(OC)cc23)c1
3. C#Cc1cccc(Nc2ncnc3cc4c(cc23)OCCOCCOCCO4)c1

1: 103; 2: 102; 3: 104

====

I'd be grateful if you could share measured cell viability for these entries.
- Tested on: Calu-3
- TEST NAME: cell viability relative to DMSO; higher = less toxic
- RUN CONDITIONS: 72 h; 10000 nM
One number for each entry, in %.

Example entries begin here.
O=C(Nc1cccc2cccnc12)c1ccc(N2C(=O)[C@@H]3[C@H](C2=O)[C@H]2C=C[C@@H]3C2)cc1 [exo-IWR-1] ... 102
CCNCCCNCCCCNCCCNCC ... 86.7
Nc1ncnc2c1c(COc1cccc(Cl)c1)nn2C1CCOCC1 ... 84.2
CN(C(=O)c1c(O)c2ccccc2n(C)c1=O)c1ccccc1 ... 108

With those in mind, consider the next compound.
Quick one: cell viability for "Cc1ccc(C(=O)Nc2ccc(Oc3cc4cnn(C)c4cc3-c3cn[nH]c3)c(F)c2)c(=O)n1-c1ccc(F)cc1" ? 65.3
